meta.source: patent US20220332795A1

Biological target: T1, recombinant biotinylated CD71 extracellular domain (Sino Biologics) with an N-terminal 6His tag (human, UniProt P02786 89-760, biotinylated (site not stated))
T1 construct: extracellular domain; also called hCD71; huCD71 ECD
T1 sequence (P02786 other isoform, or with tags, fused parts or gaps): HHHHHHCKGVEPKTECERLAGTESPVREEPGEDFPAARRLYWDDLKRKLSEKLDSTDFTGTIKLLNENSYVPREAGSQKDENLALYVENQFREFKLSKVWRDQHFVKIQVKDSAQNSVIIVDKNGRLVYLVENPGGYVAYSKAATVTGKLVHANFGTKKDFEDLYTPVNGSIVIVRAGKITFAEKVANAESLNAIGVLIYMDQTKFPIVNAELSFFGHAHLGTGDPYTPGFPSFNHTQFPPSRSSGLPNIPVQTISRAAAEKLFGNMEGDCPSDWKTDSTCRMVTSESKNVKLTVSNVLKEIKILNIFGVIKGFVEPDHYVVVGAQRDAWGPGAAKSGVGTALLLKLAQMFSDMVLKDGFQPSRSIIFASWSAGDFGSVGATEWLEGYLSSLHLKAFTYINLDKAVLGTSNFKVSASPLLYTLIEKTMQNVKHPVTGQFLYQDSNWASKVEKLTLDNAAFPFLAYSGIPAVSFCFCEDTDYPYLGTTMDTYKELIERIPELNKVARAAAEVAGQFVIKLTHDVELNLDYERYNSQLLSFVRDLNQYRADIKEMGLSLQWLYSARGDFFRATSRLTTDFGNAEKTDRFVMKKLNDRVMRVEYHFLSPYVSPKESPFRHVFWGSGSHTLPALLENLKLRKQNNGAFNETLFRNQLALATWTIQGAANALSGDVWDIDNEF
Test: primary solution ELISA screen, signal on hCD71 over HSA
observed_property: hCD71:HSA
Kindly provide the number alone.

Completed entries (count: 5):
SEQ ID NO 23 (designed binder, not shown: small tags and cut ends, FN3 domain, hit of the apical domain panning) MLPAPKNLVVSRVTEDSARLSWTAPDAAFDSFAIWYHEWYGDGEAIVLTVPGSERSYDLTGPKPGTEYRVRISGVKGGFESGPLSAIFTT | 110
SEQ ID NO 4 (designed binder, not shown: small tags and cut ends, FN3 domain, hit of the apical domain panning) MLPAPKNLVVSEVTEDSARLSWQGVARAFDSFLITYRDQIFAGEVIVLTVPGSERSYDLTGLKPGTEYPVWIQGVKGGSPSAPLSAESTT | 12
SEQ ID NO 3 (designed binder, not shown: small tags and cut ends, FN3 domain, hit of the apical domain panning) MLPAPKNLVVSRVTEDSARLSWTAPDAAFDSFNIEYAETRWYGEAIVLTVPGSERSYDLTGLKPGTEYVVPIDGVKGGIASKPLSAIFTT | 69
SEQ ID NO 24 (designed binder, not shown: small tags and cut ends, FN3 domain, hit of the apical domain panning) MLPAPKNLVVSRVTEDSARLSWTAPDAAFDSFMIRYQEGTRWGEAIVLTVPGSERSYDLTGLKPGTEYIVMIAGVKGGQISLPLSAIFTT | 374
SEQ ID NO 102 (designed binder, not shown: small tags and cut ends, FN3 domain, hit of the apical domain panning) MLPAPKNLVVSRVTEDSARLSWQGVARAFDSFLITYREQIFAGEVIVLTVPGSERSYDLTGLKPGTEYPVWIQGVKGGSPSAPLSAEFTT | 11

Need hCD71:HSA, item SEQ ID NO 100 (designed binder, not shown: small tags and cut ends, FN3 domain, hit of the apical domain panning) MLPAPKNLVVSRVTEDSARLSWTAPDAAFDSFYIWYEEVMYLGEAIVLTVPGSERSYDLTGLKPGTEYNVPIPGVKGGHSSPPLSAIFTT
79

Also SEQ ID NO 89 (designed binder, not shown: small tags and cut ends, FN3 domain, hit of the apical domain panning) MLPAPENLVVSRVTEDSARLSWTAPDAAFDSFWIEYYEGVIQGEAIVLTVPGSERSYDLTGLKPGTEYFVAIWGVKGGKWSVPLSAIFTT , if possible.
141

Also SEQ ID NO 56 (designed binder, not shown: small tags and cut ends, FN3 domain, hit of the apical domain panning) MLPAPKNLVVSRVTEDSARLSWTAPDAAFDSFSIGYVELVLLGEAIVLTVPGSERSYDLTGLKPGTEYDVLIPGVKGGSLSRPLSAIFTT , if possible.
99

Also SEQ ID NO 71 (designed binder, not shown: small tags and cut ends, FN3 domain, hit of the apical domain panning) MLPAPKNLVVSRVTEDSARLSWTAPDAAFDSFPISYLELSLYGEAIVLTVPGSERSYDLTGLKPGTEYPVGIAGVKGGVVSRPLSAIFTT , if possible.
96
